Target: BCL-XL (Homo sapiens, UniProt Q07817)
Construct: endogenous in cells; host or cells: MOLT-4
Sequence (Q07817 whole entry): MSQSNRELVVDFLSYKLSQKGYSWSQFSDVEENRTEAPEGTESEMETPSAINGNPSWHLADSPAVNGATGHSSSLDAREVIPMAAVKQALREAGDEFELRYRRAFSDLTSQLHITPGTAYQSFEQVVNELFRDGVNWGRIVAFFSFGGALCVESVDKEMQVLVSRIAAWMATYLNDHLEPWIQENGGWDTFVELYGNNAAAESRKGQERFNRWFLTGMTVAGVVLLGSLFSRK
Assay: Bcl-xL ELISA degradation in MOLT-4 cells, 6 h
Assay type: cell-based
Conditions: read-out: Bcl-xL ELISA in MOLT-4 degradation 6 h: Mean external-Abs DC50
Observed Property: DC50

For orientation, consider the following solved cases.
C#Cc1ccc(CNC(=O)[C@@H]2C[C@@H](O)CN2C(=O)[C@H](c2cc(N3CCN(c4ccc(S(=O)(=O)NC(=O)c5nc(N6CCc7cccc(C(=O)Nc8nc9ccccc9s8)c7C6)ccc5-c5cnn(CC6CCCCC6)c5C)cc4)CC3)no2)C(C)C)cc1; 100 to 500 nM
Cc1ncsc1-c1ccc([C@H](C)NC(=O)[C@@H]2C[C@@H](O)CN2C(=O)[C@@H](NC(=O)CCCCCS(=O)(=O)NC(=O)c2nc(N3CCc4cccc(C(=O)Nc5nc6ccccc6s5)c4C3)ccc2-c2cnn(CC3CCCCC3)c2C)C(C)(C)CCO)cc1; 10 to 100 nM

Exercise: Query: DC50; subject: `Cc1cc(N(C)c2ccc(-c3cnn(CC45CC6CC(CC(C6)C4)C5)c3C)c(C(=O)NS(=O)(=O)CCCC(=O)N[C@H](C(=O)N3C[C@H](O)C[C@H]3C(=O)N[C@@H](C)c3ccc(-c4scnc4C)cc3)C(C)(C)C)n2)nnc1Nc1nc2cccnc2s1`
Solution: 100 to 500 nM

Exercise: Proceed to `COc1nn(C)c2ccc([C@@H](C)NC(=O)[C@@H]3C[C@@H](O)CN3C(=O)[C@@H](NC(=O)CCCCCS(=O)(=O)NC(=O)c3nc(N4CCc5cccc(C(=O)Nc6nc7cccnc7s6)c5C4)ccc3-c3cnn(CC4CCCCC4)c3C)C(C)(C)C)cc12`
Solution: 100 to 500 nM
